Hey, just so you know, these numbers are from patent US20240408169A1.

Test system: NCI-H1048 cells
Method notes: MTT proliferation assay, NCI-H1048
Type: cell-based
Condition: 5 days compound exposure, 1:3 serial dilution starting at 10 μM
*1 amine or outer side, *2 acyl side, *3 side chain or, on linkers, in order; H or OH if unused. Where a SMILES comes first, the peptide text is derived from it. Bridges are numbered along the chain shown (N, C = ends). [ ]: non-standard residue; d: D form. The star is where a group is joined. X62 = CN1CCC[C@H](c2ccc(-c3ccc(Cl)cc3C[C@@H](C(=O)[*:2])N(C)[*:1])cc2)C1; X165 = CN([C@@H](Cc1cc(Cl)ccc1-c1ccc(N2CCOCC2)c(Cl)c1)C(=O)[*:2])[*:1]; X16 = CN([C@@H](Cc1cc(Cl)ccc1-c1cnc2c(cnn2C)c1)C(=O)[*:2])[*:1]; NMehhhLys(Me) = CN([C@@H](CCCCCCCN(C)[*:3])C(=O)[*:2])[*:1]; cBuCO(3,3-F2-1-CF3) = O=C(C1(C(F)(F)F)CC(F)(F)C1)*; Pro(trans-4-F) = O=C(O)[C@@H]1C[C@@H](F)CN1; Gly(cPr) = N[C@H](C(=O)O)C1CC1

Compound	GI50
CC(C)C[C@@H]1NC(=O)[C@@H](N(C)C(=O)[C@@H](NC(=O)[C@@H]2C[C@@H](F)CN2C(=O)C2(C(F)(F)F)CC(F)(F)C2)C2CC2)CCCCCCCN(C)C(=O)[C@H](Cc2cc(Cl)ccc2-c2ccc([C@H]3CCCN(C)C3)cc2)N(C)C1=O [Example 412] ({cBuCO(3,3-F2-1-CF3)}-[Pro(trans-4-F)][Gly(cPr)][NMehhhLys(Me)]L[X62]; lactam 3-C)	10 nM
CC(C)C[C@@H]1NC(=O)[C@@H](N(C)C(=O)[C@@H](NC(=O)[C@@H]2C[C@@H](F)CN2C(=O)C2(C(F)(F)F)CC(F)(F)C2)C2CC2)CCCCCCCN(C)C(=O)[C@H](Cc2cc(Cl)ccc2-c2ccc(N3CCOCC3)c(Cl)c2)N(C)C1=O [Example 345] ({cBuCO(3,3-F2-1-CF3)}-[Pro(trans-4-F)][Gly(cPr)][NMehhhLys(Me)]L[X165]; lactam 3-C)	20 nM
CC(C)C[C@@H]1NC(=O)[C@@H](N(C)C(=O)[C@@H](NC(=O)[C@@H]2C[C@@H](F)CN2C(=O)C2(C(F)(F)F)CC(F)(F)C2)C2CC2)CCCCCCCN(C)C(=O)[C@H](Cc2cc(Cl)ccc2-c2cnc3c(cnn3C)c2)N(C)C1=O [Example 250] ({cBuCO(3,3-F2-1-CF3)}-[Pro(trans-4-F)][Gly(cPr)][NMehhhLys(Me)]L[X16]; lactam 3-C)	30 nM

* * *

Tested on: NCI-H1048 cells
Method notes: MTT proliferation assay, NCI-H1048;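 note: Dose-response in 96-well plates over 8 or 10 concentration points, with exposure spanning 3-4 cell doublings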
Type: cell-based
Condition: 5 days compound exposure, 1:3 serial dilution starting at 10 μM
*1 amine or outer side, *2 acyl side, *3 side chain or, on linkers, in order; H or OH if unused. Where a SMILES comes first, the peptide text is derived from it. Bridges are numbered along the chain shown (N, C = ends). [ ]: non-standard residue; d: D form. The star is where a group is joined. X7 = CC(C)C(=O)N1[C@H]2CC[C@@H]1C=C(c1ccc(F)cc1C[C@@H](C(=O)[*:2])N(C)[*:1])C2; NMePhe(2-(4-MorPh),5-Cl) = CN[C@@H](Cc1cc(Cl)ccc1-c1ccc(N2CCOCC2)cc1)C(=O)O; X45 = CN1CCC(F)(c2ccc(-c3ccc(Cl)cc3C[C@@H](C(=O)[*:2])N(C)[*:1])cc2)CC1; X145 = CN1CCN(c2ccc(-c3ccc(F)cc3C[C@@H](C(=O)[*:2])N(C)[*:1])cc2F)CC1; X151 = CN([C@@H](Cc1cc(Cl)ccc1-c1cnn(C2CCC2)c1)C(=O)[*:2])[*:1]; X187 = CC(=O)N1CC=C(c2ccc(Cl)cc2C[C@@H](C(=O)[*:2])N(C)[*:1])C1; X99 = CC(=O)N1CCC(Oc2ccc(Cl)cc2C[C@@H](C(=O)[*:2])N(C)[*:1])CC1; X208 = CN([C@@H](Cc1cc(F)ccc1-c1cnn(CC(F)F)c1)C(=O)[*:2])[*:1]; NMehhhLys(Me) = CN([C@@H](CCCCCCCN(C)[*:3])C(=O)[*:2])[*:1]; NMe(hhhLys) = CN([C@@H](CCCCCCCN[*:3])C(=O)[*:2])[*:1]; Cyclobutanecarbonyl(1-CF3) = O=C(C1(C(F)(F)F)CCC1)*; cBuCO(3,3-F2-1-CF3) = O=C(C1(C(F)(F)F)CC(F)(F)C1)*; X25 = CCOc1ncc(Cl)cc1C[C@@H](C(=O)[*:2])N(C)[*:1]; Pro(trans-4-F) = O=C(O)[C@@H]1C[C@@H](F)CN1; Pivaloyl(3,3,3-F3) = CC(C)(C(=O)*)C(F)(F)F; Gly(cPr) = N[C@H](C(=O)O)C1CC1

Molecule	GI50
CC(C)C[C@@H]1NC(=O)[C@@H](N(C)C(=O)[C@@H](NC(=O)[C@@H]2C[C@@H](F)CN2C(=O)C2(C(F)(F)F)CCC2)C2CC2)CC=CCCCCN(C)C(=O)[C@H](Cc2cc(Cl)ccc2-c2cnn(C)c2)N(C)C1=O	60 nM
CC(C)C[C@@H]1NC(=O)[C@@H](N(C)C(=O)[C@H](CCC(=O)O)NC(=O)[C@@H]2C[C@@H](F)CN2C(=O)C2(C(F)(F)F)CC(F)(F)C2)CCCCCCCN(C)C(=O)[C@H](Cc2cc(Cl)ccc2-c2ccc(N3CCOCC3)cc2)N(C)C1=O [Example 418] ({cBuCO(3,3-F2-1-CF3)}-[Pro(trans-4-F)]E[NMehhhLys(Me)]L[NMePhe(2-(4-MorPh),5-Cl)]; lactam 3-C)	1420 nM
CC(C)C[C@@H]1NC(=O)[C@@H](N(C)C(=O)[C@@H](NC(=O)[C@@H]2C[C@@H](F)CN2C(=O)C2(C(F)(F)F)CC(F)(F)C2)C2CC2)CCCCCCCN(C)C(=O)[C@H](Cc2cc(Cl)ccc2-c2cnn(C3CCC3)c2)N(C)C1=O [Example 112] ({cBuCO(3,3-F2-1-CF3)}-[Pro(trans-4-F)][Gly(cPr)][NMehhhLys(Me)]L[X151]; lactam 3-C)	10 nM
CC(C)C[C@@H]1NC(=O)[C@@H](N(C)C(=O)[C@H](C)NC(=O)[C@@H]2C[C@@H](F)CN2C(=O)C2(C(F)(F)F)CC(F)(F)C2)CC=CCCCCNC(=O)[C@H](Cc2cc(Cl)ccc2Cl)N(C)C1=O	470 nM
CC(=O)N1CC=C(c2ccc(Cl)cc2C[C@H]2C(=O)N(C)CCCCCCC[C@H](N(C)C(=O)[C@@H](NC(=O)[C@@H]3C[C@@H](F)CN3C(=O)C3(C(F)(F)F)CC(F)(F)C3)C3CC3)C(=O)N[C@@H](CC(C)C)C(=O)N2C)C1 [Example 308] ({cBuCO(3,3-F2-1-CF3)}-[Pro(trans-4-F)][Gly(cPr)][NMehhhLys(Me)]L[X187]; lactam 3-C)	10 nM
CCOc1ncc(Cl)cc1C[C@H]1C(=O)N(C)CCCCCCC[C@H](N(C)C(=O)[C@@H](NC(=O)[C@@H]2C[C@@H](F)CN2C(=O)C(C)(C)C(F)(F)F)C2CC2)C(=O)N[C@@H](CC(C)C)C(=O)N1C [Example 269] ({Pivaloyl(3,3,3-F3)}-[Pro(trans-4-F)][Gly(cPr)][NMehhhLys(Me)]L[X25]; lactam 3-C)	30 nM
CC(C)C[C@@H]1NC(=O)[C@@H](N(C)C(=O)[C@@H](NC(=O)[C@@H]2C[C@@H](F)CN2C(=O)C2(C(F)(F)F)CC(F)(F)C2)C2CC2)CCCCCCCNC(=O)[C@H](Cc2cc(F)ccc2C2=C[C@H]3CC[C@@H](C2)N3C(=O)C(C)C)N(C)C1=O [Example 316] ({cBuCO(3,3-F2-1-CF3)}-[Pro(trans-4-F)][Gly(cPr)][NMe(hhhLys)]L[X7]; lactam 3-C)	10 nM
CC(=O)N1CCC(Oc2ccc(Cl)cc2C[C@H]2C(=O)N(C)CCCCCCC[C@H](N(C)C(=O)[C@@H](NC(=O)[C@@H]3C[C@@H](F)CN3C(=O)C3(C(F)(F)F)CC(F)(F)C3)C3CC3)C(=O)N[C@@H](CC(C)C)C(=O)N2C)CC1 [Example 243] ({cBuCO(3,3-F2-1-CF3)}-[Pro(trans-4-F)][Gly(cPr)][NMehhhLys(Me)]L[X99]; lactam 3-C)	50 nM
CC(C)C[C@@H]1NC(=O)[C@@H](N(C)C(=O)[C@@H](NC(=O)[C@@H]2C[C@@H](F)CN2C(=O)C2(C(F)(F)F)CCC2)C2CC2)CCCCCCCN(C)C(=O)[C@H](Cc2cc(F)ccc2-c2cnn(CC(F)F)c2)N(C)C1=O [Example 92] ({Cyclobutanecarbonyl(1-CF3)}-[Pro(trans-4-F)][Gly(cPr)][NMehhhLys(Me)]L[X208]; lactam 3-C)	10 nM
CC(C)C[C@@H]1NC(=O)[C@@H](N(C)C(=O)[C@@H](NC(=O)[C@@H]2C[C@@H](F)CN2C(=O)C2(C(F)(F)F)CC(F)(F)C2)C2CC2)CCCCCCCN(C)C(=O)[C@H](Cc2cc(F)ccc2-c2ccc(N3CCN(C)CC3)c(F)c2)N(C)C1=O [Example 401] ({cBuCO(3,3-F2-1-CF3)}-[Pro(trans-4-F)][Gly(cPr)][NMehhhLys(Me)]L[X145]; lactam 3-C)	10 nM
CC(=O)N1C2C=C(c3ccc(F)cc3C[C@H]3C(=O)N(C)CCCCCCC[C@H](N(C)C(=O)[C@@H](NC(=O)[C@@H]4C[C@@H](F)CN4C(=O)C4(C(F)(F)F)CC(F)(F)C4)C4CC4)C(=O)N[C@@H](CC(C)C)C(=O)N3C)CC1CC2 (stereo partly drawn)	30 nM
CC(C)C[C@@H]1NC(=O)[C@@H](N(C)C(=O)[C@@H](NC(=O)[C@@H]2C[C@@H](F)CN2C(=O)C2(C(F)(F)F)CC(F)(F)C2)C2CC2)CCCCCCCN(C)C(=O)[C@H](Cc2cc(Cl)ccc2-c2ccc(C3(F)CCN(C)CC3)cc2)N(C)C1=O [Example 370] ({cBuCO(3,3-F2-1-CF3)}-[Pro(trans-4-F)][Gly(cPr)][NMehhhLys(Me)]L[X45]; lactam 3-C)	20 nM
